- Test system: leukemia cell lines
- protocol_text: Resazurin cell viability assay on leukemia cell lines (72 h growth inhibition, GI50)
- Type: cell-based
- measurement_parameters: Homo sapiens, MV4-11 cells
Entries and their measured log10 GI50 follow.
readout: log10 GI50 (log10 of the value in µM)

>  <compound>
Cc1cnc(N[C@H]2CC[C@H](N3CCCC3)CC2)nc1-c1cnc2ccc(-c3ccccc3)cn12

>  <log10 GI50>
-0.62

$$$$
>  <compound>
Cc1noc(C)c1-c1ccc2ncc(-c3nc(N[C@H]4CC[C@H](N)CC4)ncc3Cl)n2c1

>  <log10 GI50>
-1.28

$$$$
>  <compound>
Cc1cnc(N[C@H]2CC[C@H](N)CC2)nc1-c1cnc2ccccn12

>  <log10 GI50>
-1.18

$$$$
>  <compound>
CCN[C@H]1CC[C@H](Nc2ncc(C)c(-c3cnc4ccc(-c5ccccc5)cn34)n2)CC1

>  <log10 GI50>
-0.88

$$$$
>  <compound>
Cc1cnc(NC2CCC(N(C)C)CC2)nc1-c1cnc2ccc(Nc3cccnc3)cn12 (stereo not shown)

>  <log10 GI50>
-0.82

$$$$
>  <compound>
Cc1cnc(N[C@H]2CC[C@H](N)CC2)nc1-c1cnc2ccc(Nc3ccccc3)cn12

>  <log10 GI50>
-2.30

$$$$
>  <compound>
N[C@H]1CC[C@H](Nc2ncc(F)c(-c3cnc4ccc(NCc5ccc(F)cc5)cn34)n2)CC1

>  <log10 GI50>
-1.12

$$$$
>  <compound>
COc1ccc(-c2ccc3ncc(-c4nc(N[C@H]5CC[C@H](N)CC5)ncc4C)n3c2)cn1

>  <log10 GI50>
-0.75

$$$$
>  <compound>
CCOc1ccc(Nc2ccc3ncc(-c4nc(N[C@H]5CC[C@H](N)CC5)ncc4C)n3c2)cn1

>  <log10 GI50>
-0.89

$$$$
>  <compound>
Cc1cnc(N[C@H]2CC[C@@H](N3CCC3)CC2)nc1-c1cnc2ccc(-c3ccccc3)cn12

>  <log10 GI50>
-0.53

$$$$
>  <compound>
Cc1cnc(N[C@H]2CC[C@@H](N)CC2)nc1-c1cnc2ccc(-c3ccccc3)cn12

>  <log10 GI50>
-1.85

$$$$
>  <compound>
Cc1cnc(N[C@H]2CC[C@H](N)CC2)nc1-c1cnc2cc(C(F)(F)F)c(-c3ccccc3)cn12

>  <log10 GI50>
-0.38

$$$$
>  <compound>
Cc1cnc(N[C@H]2CC[C@H](C)CC2)nc1-c1cnc2ccc(Nc3cncnc3)cn12

>  <log10 GI50>
0.46

$$$$

----------
- system_under_test: CDKs and other kinases (Homo sapiens)
- Construct: other: CDK7H; residual activity (%) at 10 μM CDK7H; compound at 10 μM
- Sequence (P50613 whole entry): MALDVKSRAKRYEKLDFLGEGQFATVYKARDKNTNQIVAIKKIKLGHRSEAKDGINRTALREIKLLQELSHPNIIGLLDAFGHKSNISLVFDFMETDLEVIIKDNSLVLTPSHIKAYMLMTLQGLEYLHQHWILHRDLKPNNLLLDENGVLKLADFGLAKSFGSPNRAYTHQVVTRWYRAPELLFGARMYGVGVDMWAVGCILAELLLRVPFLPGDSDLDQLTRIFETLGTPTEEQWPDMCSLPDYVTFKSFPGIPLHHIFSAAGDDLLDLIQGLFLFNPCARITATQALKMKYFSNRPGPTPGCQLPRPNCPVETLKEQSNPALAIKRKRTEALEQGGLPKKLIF
- protocol_text: Radiometric kinase assay (Eurofins Pharma Discovery or Reaction Biology Corporation Kinase Profiler)
- Type: biochemical
- measurement_parameters: CDK7H; compound at 10 μM; read-out: residual activity (%) at 10 μM CDK7H
readout: remaining activity at 10 µM (%)

>  <substance_smiles>
Cc1cnc(N[C@H]2CC[C@H](N(CC(N)=O)CC(N)=O)CC2)nc1-c1cnc2ccc(Nc3cncnc3)cn12

>  <system_under_test>
CDKs and other kinases (Homo sapiens)

>  <value_reported>
37

$$$$
>  <substance_smiles>
COC(=O)[C@H]1CC[C@H](Nc2ncc(C)c(-c3cnc4ccc(Nc5cncnc5)cn34)n2)CC1

>  <system_under_test>
CDKs and other kinases (Homo sapiens)

>  <value_reported>
90

$$$$
>  <substance_smiles>
Cc1cnc(N[C@H]2CC[C@H](N)CC2)nc1-c1cnc2ccc(-c3ccoc3)cn12

>  <system_under_test>
CDKs and other kinases (Homo sapiens)

>  <value_reported>
18

$$$$
>  <substance_smiles>
Cc1cnc(NC2CCOCC2)nc1-c1cnc2ccc(Nc3cccnc3)cn12

>  <system_under_test>
CDKs and other kinases (Homo sapiens)

>  <value_reported>
40

$$$$
>  <substance_smiles>
O[C@H]1CC[C@H](Nc2ncc(Cl)c(-c3cnc4ccc(-c5cccnc5)cn34)n2)CC1

>  <system_under_test>
CDKs and other kinases (Homo sapiens)

>  <value_reported>
33

$$$$
>  <substance_smiles>
Cc1cnc(NC2CCC(F)(F)CC2)nc1-c1cnc2ccc(-c3ccccc3)cn12

>  <system_under_test>
CDKs and other kinases (Homo sapiens)

>  <value_reported>
99

$$$$
>  <substance_smiles>
Cc1cnc(N[C@H]2CC[C@H](C(=O)O)CC2)nc1-c1cnc2ccc(Nc3cncnc3)cn12

>  <system_under_test>
CDKs and other kinases (Homo sapiens)

>  <value_reported>
98

$$$$
>  <substance_smiles>
Cc1cnc(N[C@H]2CC[C@H](N3CCCC3)CC2)nc1-c1cnc2ccc(Nc3cncnc3)cn12

>  <system_under_test>
CDKs and other kinases (Homo sapiens)

>  <value_reported>
39

$$$$
